System: E34 (patient-derived glioblastoma stem cells of proneural subtype);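 further: nuclei counted by high-content imaging of Hoechst-stained cells in laminin-coated 384-well plates, relative to 0.1% DMSO vehicle wells, with staurosporine as cell-death control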
Assay: surviving fraction (nuclei count normalised to DMSO); higher = more cells surviving (less toxic)
Conditions: 12.3 nM; exposure time: 72 h
Counter-ions that a name gives are not always drawn.
Measured surviving fraction values are reported for all entries that follow.
Response field accepts a number only; no unit should be typed.

| COMPOUND | READOUT_LABEL | MEASUREMENT |
| --- | --- | --- |
| COC(=O)Nc1nc2cc(C(=O)c3ccccc3)ccc2[nH]1 [Mebendazole] | surviving fraction | 0.961 |
| CC(=O)CC(c1ccc([N+](=O)[O-])cc1)c1c(O)c2ccccc2oc1=O (stereo not given) [Acenocoumarol] | surviving fraction | 1.01 |
| CCOC(=O)C1=C(C)NC(C)=C(C(=O)OCC)C1c1c(F)c(F)c(F)c(F)c1F [Nemadipine-A] | surviving fraction | 0.767 |
| CC[C@@]1(O)C(=O)OCc2c1cc1n(c2=O)Cc2cc3cc(O)ccc3nc2-1 [Hydroxy Camptothecine] | surviving fraction | 0.492 |
| OC[C@H]1O[C@@H](Oc2ccc(O)cc2)[C@H](O)[C@@H](O)[C@@H]1O [Arbutin] | surviving fraction | 1.15 |
| CC(C)C[C@H](NC(=O)CNC(=O)c1cc(Cl)ccc1Cl)B1OC(=O)C(CC(=O)O)(CC(=O)O)O1 [MLN9708] | surviving fraction | 0.293 |

Input line: Give the measured surviving fraction for CCOC(=O)OC(C)OC1=C(C(=O)Nc2ccccn2)N(C)S(=O)(=O)c2ccccc21 (stereo not given) [Ampiroxicam]
Output line: 0.946

Input line: # return recorded surviving fraction for input CCCCCCCCCCCCCCCC[N+](C)(C)CCN(Cc1ccc(OC)cc1)c1ncccn1 [Thonzonium bromide]
Output line: 0.954

Input line: Supply measured surviving fraction of Cc1c(-c2ccc(-c3ccccc3F)cc2)nc2ccc(F)cc2c1C(=O)O [Brequinar sodium salt hydrate] in your reply.
Output line: 0.864

Input line: Please look at this compound and report its surviving fraction: COc1cc([C@@H]2c3cc4c(cc3[C@@H](O[C@@H]3O[C@@H]5CO[C@@H](c6cccs6)O[C@H]5[C@H](O)[C@H]3O)[C@H]3COC(=O)[C@H]23)OCO4)cc(OC)c1O [Teniposide]
Output line: 0.677

Input line: Return surviving fraction for the following compound: OC(c1cc(C(F)(F)F)nc2c(C(F)(F)F)cccc12)C1CCCCN1 (stereo not given) [Mefloquine hydrochloride]
Output line: 0.856

Input line: Give the measured surviving fraction for COc1ccc(/C=C\c2cc(OC)c(OC)c(OC)c2)cc1OP(=O)(O)O [Fosbretabulin Disodium]
Output line: 0.962

Input line: Note down surviving fraction recorded for CCCCC1C(=O)N(c2ccccc2)N(c2ccc(O)cc2)C1=O (stereo not given) [Oxyphenbutazone]
Output line: 1.07

Input line: Give recorded surviving fraction. `CC[n+]1c(/C=C/C=C2/N(C)c3ccccc3C2(C)C)sc2ccccc21`
Output line: 0.902

Input line: Complete the entry with surviving fraction for CC[C@]1(O)C[C@@H]2CN(CCc3c([nH]c4ccccc34)[C@@](C(=O)OC)(c3cc4c(cc3OC)N(C)[C@H]3[C@@](O)(C(=O)OC)[C@H](OC(C)=O)[C@]5(CC)C=CCN6CC[C@]43[C@@H]65)C2)C1 [Vinblastine sulfate]
Output line: 0.282

* * *

Entries and their phenotypic distance values follow.
Tested on: E57 (patient-derived glioblastoma stem cells of mesenchymal subtype);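 further: cell Painting imaging in 384-well plates, CellProfiler features reduced to at least 20 principal components, Euclidean distance versus same-plate DMSO vehicle wells (0.1% v/v), median over six images per well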
Assay: phenotypic distance (Euclidean, principal components) from DMSO controls (arbitrary units); higher = stronger morphological change
Details: 4.1 nM; exposure time: 72 h
Structures can show the parent of a compound that is named as a salt.

| MOLECULE | phenotypic distance |
| --- | --- |
| Cc1cc(C)c(CN2CCc3c(Cl)cc(-c4c(C)noc4C)c(Cl)c3C2=O)c(=O)[nH]1 | 0.289 |
| COC(=O)C[C@](O)(CCCC(C)(C)O)C(=O)O[C@@H]1C(OC)=C[C@]23CCCN2CCc2cc4c(cc2[C@H]13)OCO4 [Homoharringtonine] | 1.28 |
| Cc1c(-c2ccc(-c3ccccc3F)cc2)nc2ccc(F)cc2c1C(=O)O [Brequinar sodium salt hydrate] | 1.62 |
| CCCSc1ccc2[nH]c(NC(=O)OC)nc2c1 [Albendazole] | 0.729 |
| CC(C)C[C@H](NC(=O)[C@H](CCc1ccccc1)NC(=O)CN1CCOCC1)C(=O)N[C@@H](Cc1ccccc1)C(=O)N[C@@H](CC(C)C)C(=O)[C@@]1(C)CO1 [Carfilzomib] | 12.2 |
| N=C(N)NCc1cccc(I)c1 [Iobenguane sulfate] | 0.755 |
| COC(=O)Nc1nc2cc(Sc3ccccc3)ccc2[nH]1 [Fenbendazole] | 0.515 |
| NCc1ccccc1CC(=O)N[C@@H]1C(=O)N2C(C(=O)O)=C(CSc3nnnn3CC(=O)O)CS[C@H]12 [Ceforanide] | 0.735 |

Input line: Read off the recorded phenotypic distance for C[C@@]12C(=O)OC(=O)[C@]1(C)[C@H]1CC[C@@H]2O1 [Cantharidin]
Output line: 4.16

Input line: Provide phenotypic distance value for the following molecule: C[C@@H]1CN([C@H]2CC[C@](C#N)(c3ccc(F)cc3)CC2)CC[C@]1(C(=O)O)c1ccccc1 [Levocabastine hydrochloride]
Output line: 1.04

Input line: Recall and state the measured phenotypic distance for O=C1CCc2cc(OCCCCc3nnnn3C3CCCCC3)ccc2N1 [Cilostazol] .
Output line: 0.508
